# SUBJECT_OF_TEST: mouse TEAD4 (mTEAD4) (Mus musculus)
# Sequence (Q62296 210-427): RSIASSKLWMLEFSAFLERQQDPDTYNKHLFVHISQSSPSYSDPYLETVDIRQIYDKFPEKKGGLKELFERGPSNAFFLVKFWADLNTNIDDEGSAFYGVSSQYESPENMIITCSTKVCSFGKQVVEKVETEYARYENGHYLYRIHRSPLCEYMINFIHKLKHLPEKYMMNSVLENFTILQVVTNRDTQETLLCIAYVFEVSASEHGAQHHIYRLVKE
MEASURED_METRIC: Kd

Kd reported for this compound O=C(O)C(c1ccccc1)n1cccc1 (stereo not shown) : ~300 µM
